# system: hFXR (Homo sapiens, UniProt Q96RI1)
# Sequence (Q96RI1 1-486): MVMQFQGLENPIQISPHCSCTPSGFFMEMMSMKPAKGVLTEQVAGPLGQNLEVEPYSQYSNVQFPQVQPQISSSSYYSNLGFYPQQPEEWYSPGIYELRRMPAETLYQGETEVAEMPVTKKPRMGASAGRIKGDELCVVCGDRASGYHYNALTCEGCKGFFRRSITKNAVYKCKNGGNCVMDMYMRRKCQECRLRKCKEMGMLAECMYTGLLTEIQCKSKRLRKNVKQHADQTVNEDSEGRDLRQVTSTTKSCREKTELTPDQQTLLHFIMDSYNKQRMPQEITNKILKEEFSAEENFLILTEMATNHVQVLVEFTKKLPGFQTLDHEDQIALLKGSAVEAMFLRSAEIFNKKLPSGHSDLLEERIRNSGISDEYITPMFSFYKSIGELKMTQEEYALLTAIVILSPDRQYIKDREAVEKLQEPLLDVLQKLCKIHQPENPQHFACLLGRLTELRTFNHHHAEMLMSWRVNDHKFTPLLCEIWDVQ
# Sequence (P19793 1-462 partner): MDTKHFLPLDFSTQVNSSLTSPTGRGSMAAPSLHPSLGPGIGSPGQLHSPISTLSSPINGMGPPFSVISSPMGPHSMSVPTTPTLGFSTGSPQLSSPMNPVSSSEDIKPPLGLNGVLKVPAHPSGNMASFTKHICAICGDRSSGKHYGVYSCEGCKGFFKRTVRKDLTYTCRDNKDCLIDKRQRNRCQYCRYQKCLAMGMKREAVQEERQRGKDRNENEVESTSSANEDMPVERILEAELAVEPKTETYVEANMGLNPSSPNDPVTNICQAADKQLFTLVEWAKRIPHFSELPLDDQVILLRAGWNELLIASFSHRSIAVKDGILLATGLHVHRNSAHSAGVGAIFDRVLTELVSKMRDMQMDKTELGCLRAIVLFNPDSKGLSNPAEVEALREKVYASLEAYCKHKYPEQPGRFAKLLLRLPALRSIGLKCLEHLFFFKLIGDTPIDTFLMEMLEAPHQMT
# method-description: In Vitro FXR Assay (TK): hFXR/hRXR TK-ECRE-luc reporter in transfected CV-1 cells
# cond: 18 hrs incubation, luminescence, compounds with maximum efficacy <25% of the Fexarmine control classified as '+'
Listed molecules paired with reported EC50
readout-kind: EC50

molecule: COc1ccc([C@H]2CC[C@H](CN(c3cccc(-c4cnc(OC(F)F)s4)c3)C(=O)[C@H]3CC[C@H](O)CC3)CC2)cc1C [Compound 9.01]
experimental-value: ≤ 250 nM
--
molecule: COc1ccc([C@H]2CC[C@H](CN(c3cccc(NCc4nccs4)c3)C(=O)[C@H]3CC[C@H](O)CC3)CC2)cc1C [Compound 15]
experimental-value: 250 to 1000 nM
--
molecule: CCO[C@H]1CC[C@H](C(=O)N(C[C@H]2CC[C@H](c3ccc(OC)c(C)c3)CC2)c2cccc(-c3cnc(OC)s3)c2)CC1 [Compound 4]
experimental-value: 250 to 1000 nM
--
molecule: COc1ccc([C@H]2CC[C@H](CN(c3cccc(-c4cnc(N5CCCC5)s4)c3)C(=O)[C@H]3CC[C@H](O)CC3)CC2)cc1C [Compound 6]
experimental-value: ≤ 250 nM
--
molecule: COc1ccc([C@H]2CC[C@H](CN(c3cccc(-c4cnc(CO)s4)c3)C(=O)[C@H]3CC[C@H](O)CC3)CC2)cc1C [Compound 7.19]
experimental-value: 250 to 1000 nM
--
molecule: COc1ccc(C23CCC(CN(c4cc(-c5cnc(C6CC6)s5)ccn4)C(=O)[C@H]4CC[C@H](O)CC4)(CC2)CC3)cc1C [Compound 6.05]
experimental-value: ≤ 250 nM
--
molecule: COc1ncc(-c2cccc(N(C[C@H]3CC[C@H](c4ccc(OC)c(C)c4)CC3)C(=O)C3CCCCC3)c2)s1 [Compound 1.01]
experimental-value: ≤ 250 nM
--
molecule: COc1ncc(-c2cccc(N(C[C@H]3CC[C@H](c4ccc(OC)c(C)c4)CC3)C(=O)[C@H]3CC[C@H](OC(C)C)CC3)c2)s1 [Compound 9.34]
experimental-value: ≤ 250 nM
--
molecule: COc1ncc(-c2cccc(N(C[C@H]3CC[C@H](c4ccc(N(C)C)nc4)CC3)C(=O)[C@H]3CC[C@H](O)CC3)c2)s1 [Compound 9.08]
experimental-value: ≤ 250 nM
--
molecule: CCOc1ncc(-c2cccc(N(C[C@H]3CC[C@H](c4ccc(OC)c(C)c4)CC3)C(=O)[C@H]3CC[C@H](O)CC3)c2)s1 [Compound 7.16]
experimental-value: ≤ 250 nM
--
molecule: COc1ncc(-c2cccc(N(C[C@H]3CC[C@H](c4ccc(OC)c(C)c4)CC3)C(=O)[C@H]3CC[C@H](OC)CC3)c2)s1 [Compound 9.33]
experimental-value: ≤ 250 nM
--
molecule: COc1ccc([C@H]2CC[C@H](CN(c3cccc(-c4sc(C)nc4C)c3)C(=O)[C@H]3CC[C@H](O)CC3)CC2)cc1C [Compound 7.04]
experimental-value: ≥ 1000 nM
--
molecule: COc1ncc(-c2cccc(N(C[C@H]3CC[C@H](c4ccc(OC)c(C)c4)CC3)C(=O)[C@H]3CC[C@@H](O)CC3)c2)s1 [Compound 5]
experimental-value: ≤ 250 nM

Origin of the recorded values: patent US20200131142A1
